Molecular target: human 5α-reductase type 2 (Homo sapiens, UniProt P31213)
Sequence (P31213 1-254): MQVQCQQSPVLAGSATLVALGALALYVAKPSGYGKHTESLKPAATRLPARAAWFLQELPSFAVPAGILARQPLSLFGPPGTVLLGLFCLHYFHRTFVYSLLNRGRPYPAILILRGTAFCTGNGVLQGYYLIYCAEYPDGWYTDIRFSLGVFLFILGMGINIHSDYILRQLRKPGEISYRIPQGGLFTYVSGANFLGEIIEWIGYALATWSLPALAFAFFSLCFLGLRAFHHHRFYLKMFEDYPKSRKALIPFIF
Assay: Human 5α-reductase type 2 assay (BPH tissue homogenate)
readout.kind: IC50 (nM)
# number only, unit nM dropped from output

Look up and state reported IC50 for C[C@]12CCC(=O)C=C1CC[C@@H]1[C@@H]2CC[C@]2(C)C(n3cnc4ccccc43)=CC[C@@H]12 [Compound 6]
480

---

experiment: Pharmacokinetics after single s.c. dose in male SCID mice; assay type: in vivo, mouse; conditions: male, SCID, mouse, plasma, sc, 100 mg/kg, 100 mg/kg s.c., male SCID mice
readout.kind: half-life (min)
# number only, unit min dropped from output

Look up and state reported half-life for C[C@]12CC[C@H](O)CC1=CC[C@@H]1[C@@H]2CC[C@]2(C)C(n3cnc4ccccc43)=CC[C@@H]12
36.6

---

molecular target: CYP17 (Homo sapiens, UniProt P05093); assay: CYP17 inhibition, acetic acid releasing assay with intact P450c17-expressing E. coli
Sequence (P05093 whole entry): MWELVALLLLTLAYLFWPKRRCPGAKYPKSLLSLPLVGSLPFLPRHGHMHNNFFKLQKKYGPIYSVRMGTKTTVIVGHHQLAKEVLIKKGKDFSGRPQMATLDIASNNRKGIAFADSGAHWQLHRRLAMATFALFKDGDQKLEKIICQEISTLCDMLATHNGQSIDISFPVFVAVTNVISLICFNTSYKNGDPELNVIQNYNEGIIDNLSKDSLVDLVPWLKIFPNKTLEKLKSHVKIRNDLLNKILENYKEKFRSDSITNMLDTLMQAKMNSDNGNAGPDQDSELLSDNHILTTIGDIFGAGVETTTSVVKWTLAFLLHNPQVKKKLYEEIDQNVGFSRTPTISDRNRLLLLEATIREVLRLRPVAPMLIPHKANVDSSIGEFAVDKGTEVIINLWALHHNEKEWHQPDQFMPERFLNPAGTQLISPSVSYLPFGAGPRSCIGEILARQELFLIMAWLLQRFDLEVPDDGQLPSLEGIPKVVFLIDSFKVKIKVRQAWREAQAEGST
Listed here are compounds together with their documented pIC50.
# pIC50 = -log10(concentration in molar units)

Solved cases (3 shown):
>>> print(df.to_string())
                                   compound                           target_desc  readout_kind  result_value
0  C[C@]12CC[C@H](O)CC1=CC[C@@H]1[C@@H]2CC[C@]2(C)C(n3cnc4ccccc43)=CC[C@@H]12 [Compound 5]  CYP17 (Homo sapiens, UniProt P05093)         pIC50          6.52
1  C[C@]12CC[C@H](O)CC1=CC[C@@H]1[C@@H]2CC[C@]2(C)C(c3cncnc3)=CC[C@@H]12 [Compound 15]  CYP17 (Homo sapiens, UniProt P05093)         pIC50          6.30
2  C[C@]12CCC(=O)C=C1CC[C@@H]1[C@@H]2CC[C@]2(C)C(n3cnc4ccccc43)=CC[C@@H]12 [Compound 6]  CYP17 (Homo sapiens, UniProt P05093)         pIC50          6.04

API: the following record is the query input.
Lab note: CYP17 (Homo sapiens, UniProt P05093) assay, enter pIC50 for C[C@]12CC[C@H](O)CC1=CC[C@@H]1[C@@H]2CC[C@]2(C)C(c3cccnc3)=CC[C@@H]12 [Abiraterone, reference compound] here
6.10

---

experiment: Pharmacokinetics after single s.c. dose in male SCID mice; assay type: in vivo, mouse; details: mouse, plasma, sc; 50 mg/kg s.c., male SCID mice; read-out: Tmax (converted)
readout.kind: Tmax (h)
# number only, unit h dropped from output

Look up and state reported Tmax for C[C@]12CCC(=O)C=C1CC[C@@H]1[C@@H]2CC[C@]2(C)C(n3cnc4ccccc43)=CC[C@@H]12
1
